reportedMetric: melting point

CCCCCCCNC(=O)Nc1ccc(N(C)C)cc1C(=O)N(CC1CCN(C(c2ccccc2)c2ccccc2)CC1)N(C)C; 178 to 179 °C
CCNC(=O)[C@@H]1Cc2ccccc2N1; 92 to 95 °C
Fc1ccc2[nH]nc(-c3ccccc3)c2c1; 124 to 125 °C
Cc1ccc(S(=O)(=O)OCC(C)O)cc1 (racemic); 49.5 to 50 °C
CC(C)(C)CC(=O)c1c(-c2ccc3cc(OCC(=O)O)ccc3c2)oc2ccccc12; 207 to 209 °C

Per the record, CC(C)c1cccc(C(C)C)c1NC(=O)NOC(c1ccccc1)c1ccccc1 has melting point of 152 to 154 °C

Value of measured melting point for the entry O=S(Cc1cccc(C(F)(F)F)c1)c1nc2cnccc2[nH]1 (configuration not stated) : 194 to 197 °C

---

Reported melting point values for a set of compounds

Here are 2 compounds together with their reported answers.
O=C(Cc1c(-c2cccnc2)c2cc(CN3CCN(c4ccccc4)CC3)c(Cl)cc2oc1=O)Nc1ccc(Cl)cc1C(F)(F)F; 214 to 216 °C
CC(C)n1c(C=O)c(-c2ccc(F)cc2)c(-c2ccccc2)c1C(=O)Nc1ccccc1; 222 to 224 °C

Entry COc1ccc(C=O)cc1OC1CC2CCC1C2 (stereo not drawn) — recorded melting point = 75.5 to 79.5 °C

---

reportedMetric: melting point

Below: 10 compounds and their reported melting point.
CCOC(=O)C(=O)Nc1c([N+](=O)[O-])ccc2c1CCCC2; 121 to 122 °C
CC(=O)c1ccc(OCCOc2ccc3ccccc3c2)c([N+](=O)[O-])c1; 158 to 160 °C
CCc1nc2c(NC(=O)C(C)(C)C)nc3ccccc3c2n1CCCCNS(C)(=O)=O; 220 to 221 °C
COC(=O)c1cc(-c2ccc(S(C)(=O)=O)cc2)n(-c2ccccc2)n1; 190 to 193 °C
N#CC1(Nc2ccccc2)CCN(C2CCC(c3ccc(F)cc3)(c3ccc(F)cc3)CC2)CC1; 139 to 140 °C
CCCNc1nc(N)nc(C)c1/C=C/C(C)(C)c1ccc(C(F)(F)F)cc1; 140 to 141 °C
Oc1cnc(N2CCN(CCCCn3cc(Cl)cn3)CC2)nc1; 131 to 132 °C
CN(c1ncccc1C=O)C1CCN(C(=O)OC(C)(C)C)CC1; 90 to 91 °C
CC(C)(C)[Si](C)(C)Oc1ccc(S(N)(=O)=O)cc1; 117 to 118 °C
O=C(Nc1ccc(C(CC2CCCC2)C(=O)Nc2nccs2)cc1)c1ccncc1 (stereo not drawn); 225 to 230 °C

get_value(item= O=[N+]([O-])c1ccccc1OCc1csc(-c2ccccc2)n1 , readout=melting point) returns 95 °C

melting point reading for CCOC(=O)N1CCC(Cc2nc3ccccc3n2Cc2cccc(C)n2)CC1 : 160 °C

Looking up O=C1CCCC(c2ccccc2)N1c1ccccc1 (stereo not drawn) , I found its melting point recorded as 123 to 125 °C

---

melting point for assorted compounds

Completed entries (count: 4):
CCCCCCCCC(=O)OCC(O)COC(=O)CCCCCCCC; 30 to 31 °C
COc1ccc(CN(CC(=O)O)c2nc(NC(=O)Nc3ccccc3OC)nc(Nc3ccccc3-c3ccccc3)n2)cc1; 147 to 149 °C
CC(Oc1ccc(Oc2ccc(C(F)(F)F)cc2)cc1)C(=O)N1CCCO1 (centres undefined); 105 to 107 °C
COc1ccc2c(c1)C(=O)C(=O)C1=C2OC2(CCN(CC(O)COc3ccc(F)cc3)CC2)CS1 (centres undefined); 189 to 191 °C

Item: COCCOC(=O)N=NC(=O)OCCOC | melting point: 39.9 to 40.4 °C

Value of melting point reported for the compound OC(=S)Cc1cccc2ccccc12 is 106 °C

Looking up COc1cc(OC)cc(N2CCN(C(=O)N(C)c3cc4ccccc4nc3OC)CC2)c1 , I see its melting point listed as 88 to 89 °C

Input CCC(Br)C(=O)c1ccc(OC)c(OC(F)F)c1 (centres undefined) . Output melting point: 105 °C

Per the record, Cc1cc2c(cc1C(F)(F)F)N(C(=O)Nc1cnc(OCc3ccccn3)c(C)c1)CC2 has melting point of 188 to 189 °C
